The reported numbers originate from patent US10494415B2.

Listed below: Kinetics kon values for each entry.
Biological target: IGF2 (Homo sapiens, UniProt P01344)
Sequence (P01344 25-91): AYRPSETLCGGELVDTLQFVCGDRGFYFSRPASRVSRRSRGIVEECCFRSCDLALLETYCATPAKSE
Experiment: SPR (Biacore T200) of recombinant IGF2R domain 11 mutants on immobilised biotinylated IGF2
Assay type: binding
Design: purchased GroPep
Settings: Table 1; 25° C., HBS-EP pH 7.4
Description: Surface plasmon resonance (SPR) binding analysis of recombinant M6P/IGF2R domain 11 mutants interaction with IGF2. Kon indicates association (on) rate; koff, dissociation (off) rate; RU, response units. Binding to IGF2 assessed with BIAcore T200 using purified biotinylated IGF2 and IGF1 on a streptavidin biosensor chip. […] All experiments were carried out at 25° C. in HBS-EP buffer (pH 7.4), were repeated 2-5 times on two independent BIAcore chips. nd=not determined. […]
Express your answer in M⁻¹ s⁻¹, writing the number without its unit.

S1602N: domain 11 AB5 background + FG loop S1602N (protein) MKSNEHDDCQVTNPSTGHLFDLSSLSGRAGFTAAYAKGWGVYMSICGENENCPPGVGACFGQTRISVGKANKRLRYVDQVLQLVYKDGSPCPSKNGLSYKSVISFVCRPEAGPTNRPMLISLDKQTCTLFFSWHTPLACEQATECSV ... 2.38e+06

The record that follows has no Kinetics kon shown yet.
Field Kinetics kon (entry G1603K: domain 11 AB5 background + FG loop G1603K (protein) MKSNEHDDCQVTNPSTGHLFDLSSLSGRAGFTAAYAKGWGVYMSICGENENCPPGVGACFGQTRISVGKANKRLRYVDQVLQLVYKDGSPCPSKSKLSYKSVISFVCRPEAGPTNRPMLISLDKQTCTLFFSWHTPLACEQATECSV ) reads 4.66e+06
